- TESTED SYSTEM: HLA-A*02:01
- PROTOCOL TEXT: IEDB peptide-MHC binding, purified MHC/competitive/fluorescence; filed as Kd, often an IC50 or EC50 that approximates it; bounds were set here for any values at or beyond the usual limits of such assays
- CONDITION INFO: source organism: Vaccinia virus WR
MEASURED PROPERTY: pKd
// pKd is dimensionless: -log10 of concentration (M)

[in] Look up pKd: "ILFPDDVQEL"
[out] 8.96

[in] Look up pKd: "FTSSFYNYV"
[out] 8.34

###

- TESTED SYSTEM: HLA-A*02:19
- PROTOCOL TEXT: IEDB peptide-MHC binding, purified MHC/direct/fluorescence; filed as Kd, often an IC50 or EC50 that approximates it; bounds were set here for any values at or beyond the usual limits of such assays
- CONDITION INFO: source organism: Vibrio cholerae V52
MEASURED PROPERTY: Kd

[in] Which Kd is reported with HLA-A*02:19 for this entry: "LPYPVLLKI" ?
[out] ≥ 20 µM

###

- TESTED SYSTEM: HLA-A*02:01
- PROTOCOL TEXT: IEDB peptide-MHC binding, purified MHC/direct/fluorescence; filed as Kd, often an IC50 or EC50 that approximates it; bounds were set here for any values at or beyond the usual limits of such assays
- CONDITION INFO: source organism: Escherichia coli O157:H7 str. EC869
MEASURED PROPERTY: Kd

[in] Look up Kd: "SQFNHWFGE"
[out] ≥ 20 µM

###

- TESTED SYSTEM: HLA-C*15:02
- PROTOCOL TEXT: IEDB peptide-MHC binding, purified MHC/direct/fluorescence; filed as Kd, often an IC50 or EC50 that approximates it; bounds were set here for any values at or beyond the usual limits of such assays
- CONDITION INFO: source organism: Rickettsia bellii RML369-C
MEASURED PROPERTY: Kd (nM)
Write down the numeric answer in nM and omit the unit.

[in] Look up Kd: "FAYKTGSSM"
[out] 4

###

- TESTED SYSTEM: HLA-A*30:02
- PROTOCOL TEXT: IEDB peptide-MHC binding, purified MHC/competitive/radioactivity; filed as Kd, often an IC50 or EC50 that approximates it; bounds were set here for any values at or beyond the usual limits of such assays
- CONDITION INFO: source organism: Dengue virus 3 Sri Lanka/1266/2000
MEASURED PROPERTY: Kd

[in] Which Kd is reported with HLA-A*30:02 for this entry: "AGPISQHNY" ?
[out] ≥ 76.9 µM

###

- TESTED SYSTEM: HLA-B*15:17
- PROTOCOL TEXT: IEDB peptide-MHC binding, purified MHC/competitive/fluorescence; filed as Kd, often an IC50 or EC50 that approximates it; bounds were set here for any values at or beyond the usual limits of such assays
- CONDITION INFO: source organism: Xanthobacter autotrophicus Py2
pKd: −log10 of the molar value.
MEASURED PROPERTY: pKd

[in] Look up pKd: "GQMYNMNTL"
[out] ≤ 4.70

###

- TESTED SYSTEM: HLA-A*80:01
- PROTOCOL TEXT: IEDB peptide-MHC binding, purified MHC/direct/fluorescence; filed as Kd, often an IC50 or EC50 that approximates it; bounds were set here for any values at or beyond the usual limits of such assays
- CONDITION INFO: source organism: Mycobacterium tuberculosis
pKd: −log10 of the molar value.
MEASURED PROPERTY: pKd

[in] Look up pKd: "KTVCVQATK"
[out] ≤ 4.70

###

- TESTED SYSTEM: HLA-A*31:01
- PROTOCOL TEXT: IEDB peptide-MHC binding, purified MHC/competitive/radioactivity; filed as Kd, often an IC50 or EC50 that approximates it; bounds were set here for any values at or beyond the usual limits of such assays
- CONDITION INFO: source organism: Mammarenavirus choriomeningitidis
MEASURED PROPERTY: pKd
// pKd is dimensionless: -log10 of concentration (M)

[in] Look up pKd: "SAYLISIFMH"
[out] 6.18

###

- TESTED SYSTEM: HLA-B*57:01
- PROTOCOL TEXT: IEDB peptide-MHC binding, purified MHC/competitive/fluorescence; filed as Kd, often an IC50 or EC50 that approximates it; bounds were set here for any values at or beyond the usual limits of such assays
- CONDITION INFO: source organism: Streptococcus pneumoniae TIGR4
pKd: −log10 of the molar value.
MEASURED PROPERTY: pKd

[in] Look up pKd: "YQVEGATRV"
[out] ≤ 4.70

###

- TESTED SYSTEM: HLA-B*46:01
- PROTOCOL TEXT: IEDB peptide-MHC binding, purified MHC/competitive/fluorescence; filed as Kd, often an IC50 or EC50 that approximates it; bounds were set here for any values at or beyond the usual limits of such assays
- CONDITION INFO: source organism: Mycobacterium tuberculosis variant bovis BCG str. Pasteur 1173P2
MEASURED PROPERTY: pKd
// pKd is dimensionless: -log10 of concentration (M)

[in] Look up pKd: "SAFGGGNAF"
[out] 7.43

###

- TESTED SYSTEM: HLA-A*11:01
- PROTOCOL TEXT: IEDB peptide-MHC binding, purified MHC/direct/fluorescence; filed as Kd, often an IC50 or EC50 that approximates it; bounds were set here for any values at or beyond the usual limits of such assays
- CONDITION INFO: source organism: Collimonas fungivorans
MEASURED PROPERTY: Kd (nM)
Write down the numeric answer in nM and omit the unit.

[in] Look up Kd: "AYSPFAFKK"
[out] 168

###

- TESTED SYSTEM: HLA-B*45:06
- PROTOCOL TEXT: IEDB peptide-MHC binding, purified MHC/competitive/fluorescence; filed as Kd, often an IC50 or EC50 that approximates it; bounds were set here for any values at or beyond the usual limits of such assays
- CONDITION INFO: source organism: Rickettsia bellii RML369-C
pKd: −log10 of the molar value.
MEASURED PROPERTY: pKd

[in] Look up pKd: "FAYKTGSSM"
[out] ≤ 5.30

###

- TESTED SYSTEM: HLA-B*18:01
- PROTOCOL TEXT: IEDB peptide-MHC binding, purified MHC/direct/fluorescence; filed as Kd, often an IC50 or EC50 that approximates it; bounds were set here for any values at or beyond the usual limits of such assays
- CONDITION INFO: source organism: Influenza A virus (A/quail/Hong Kong/FY298/00(H9N2))
pKd: −log10 of the molar value.
MEASURED PROPERTY: pKd

[in] Which pKd is reported with HLA-B*18:01 for this entry: "TKDAERGKL" ?
[out] ≤ 4.70

###

- TESTED SYSTEM: HLA-B*07:02
- PROTOCOL TEXT: IEDB peptide-MHC binding, purified MHC/direct/fluorescence; filed as Kd, often an IC50 or EC50 that approximates it; bounds were set here for any values at or beyond the usual limits of such assays
- CONDITION INFO: source organism: Orthohantavirus tulaense
MEASURED PROPERTY: Kd

[in] Which Kd is reported with HLA-B*07:02 for this entry: "ATATWFQYY" ?
[out] ≥ 20 µM

###

- TESTED SYSTEM: HLA-A*02:03
- PROTOCOL TEXT: IEDB peptide-MHC binding, purified MHC/direct/fluorescence; filed as Kd, often an IC50 or EC50 that approximates it; bounds were set here for any values at or beyond the usual limits of such assays
- CONDITION INFO: source organism: Brucella suis 1330
pKd: −log10 of the molar value.
MEASURED PROPERTY: pKd

[in] Look up pKd: "MHCDFAFWV"
[out] ≤ 4.70

###

- TESTED SYSTEM: HLA-B*18:01
- PROTOCOL TEXT: IEDB peptide-MHC binding, purified MHC/competitive/fluorescence; filed as Kd, often an IC50 or EC50 that approximates it; bounds were set here for any values at or beyond the usual limits of such assays
- CONDITION INFO: source organism: Reston ebolavirus
MEASURED PROPERTY: Kd

[in] Look up Kd: "QAFEAGIDF"
[out] ≥ 20 µM

###

- TESTED SYSTEM: HLA-A*02:19
- PROTOCOL TEXT: IEDB peptide-MHC binding, purified MHC/direct/fluorescence; filed as Kd, often an IC50 or EC50 that approximates it; bounds were set here for any values at or beyond the usual limits of such assays
- CONDITION INFO: source organism: Escherichia coli O157:H7 str. EC869
pKd: −log10 of the molar value.
MEASURED PROPERTY: pKd

[in] Look up pKd: "SQFNHWFGE"
[out] ≤ 4.70
